Test system: Clostridium sporogenes DSM 1664
Experiment: growth (OD595) fold change vs plate DMSO controls (fold change (ratio)); higher = more growth
Details: incubation time: 27 h, anaerobic, 37 °C
Structures can show the parent of a compound that is named as a salt.
quantityKind: growth

[[record]]
molecule = "CN(c1nccc(=O)[nH]1)C1CCN(c2nc3ccccc3n2Cc2ccc(F)cc2)CC1 [Mizolastine] (20 µM)"
testedtarget = "Clostridium sporogenes DSM 1664"
measurement = 1.22

[[record]]
molecule = "CCCCOCCOCCOCc1cc2c(cc1CCC)OCO2 [Piperonyl butoxide] (20 µM)"
testedtarget = "Clostridium sporogenes DSM 1664"
measurement = 1.04

[[record]]
molecule = "NC[C@@H]1O[C@H](O[C@H]2[C@@H](O)[C@H](O[C@@H]3[C@@H](O)[C@H](N)C[C@H](N)[C@H]3O[C@H]3O[C@H](CN)[C@@H](O)[C@H](O)[C@H]3N)O[C@@H]2CO)[C@H](N)[C@@H](O)[C@@H]1O [Neomycin sulfate] (20 µM)"
testedtarget = "Clostridium sporogenes DSM 1664"
measurement = 0.902

[[record]]
molecule = "c1ccc2c(c1)Cc1ccccc1-2 [Fluorene] (20 µM)"
testedtarget = "Clostridium sporogenes DSM 1664"
measurement = 1

[[record]]
molecule = "CCN1/C(=C/C=C/C=C/c2sc3ccccc3[n+]2CC)Sc2ccccc21 [Dithiazanine iodide] (20 µM)"
testedtarget = "Clostridium sporogenes DSM 1664"
measurement = 0.625

[[record]]
molecule = "NC(=O)N1c2ccccc2CC(=O)c2ccccc21 [Oxcarbazepine] (20 µM)"
testedtarget = "Clostridium sporogenes DSM 1664"
measurement = 0.964

[[record]]
molecule = "CC1CS(=O)(=O)CCN1/N=C/c1ccc([N+](=O)[O-])o1 (stereo not drawn) [Nifurtimox] (20 µM)"
testedtarget = "Clostridium sporogenes DSM 1664"
measurement = 1.13

[[record]]
molecule = "CC(=O)[C@H]1CC[C@H]2[C@@H]3CCC4=CC(=O)CC[C@]4(C)[C@H]3CC[C@]12C [Progesterone] (20 µM)"
testedtarget = "Clostridium sporogenes DSM 1664"
measurement = 1.08


* * *

System: Ruminococcus gnavus DSM 108212
Assay: fold change of Tryptamine concentration vs plate DMSO controls (fold change (ratio)); higher = more amine produced, active = hit call of the paper (significant change in both replicates, either direction)
Settings: incubation time: 27 h, anaerobic, 37 °C
Counter-ions that a name gives are not always drawn.
quantityKind: fold change of Tryptamine concentration

[[record]]
compound = "Cc1ccnc(NS(=O)(=O)c2ccc(N)cc2)n1 [Sulfamerazine] (20 µM)"
quantitykind = "fold change of Tryptamine concentration"
measurement = "0.995 (inactive)"

[[record]]
compound = "Clc1ccc(CCC(Cn2ccnc2)Sc2c(Cl)cccc2Cl)cc1 (stereo unspecified) [Butoconazole nitrate] (20 µM)"
quantitykind = "fold change of Tryptamine concentration"
measurement = "0.514 (active)"

[[record]]
compound = "Cn1cnc2c1c(=O)[nH]c(=O)n2C [Theobromine] (20 µM)"
quantitykind = "fold change of Tryptamine concentration"
measurement = "1.05 (inactive)"

[[record]]
compound = "CO/N=C(\\C(=O)N[C@@H]1C(=O)N2C(C(=O)[O-])=C(C[n+]3cccc4c3CCC4)CS[C@H]12)c1csc(N)n1 [Cefpirome sulfate] (20 µM)"
quantitykind = "fold change of Tryptamine concentration"
measurement = "0.0828 (active)"

[[record]]
compound = "C1N2CN3CN1CN(C2)C3 [Methenamine] (20 µM)"
quantitykind = "fold change of Tryptamine concentration"
measurement = "1.04 (inactive)"

[[record]]
compound = "O=C(Nc1cccc2c(=O)cc(-c3nnn[nH]3)oc12)c1ccc(OCCCCc2ccccc2)cc1 [Pranlukast] (20 µM)"
quantitykind = "fold change of Tryptamine concentration"
measurement = "0.804 (inactive)"

[[record]]
compound = "CN1CCN(C2=Nc3cc(Cl)ccc3Nc3ccccc32)CC1 [Clozapine] (20 µM)"
quantitykind = "fold change of Tryptamine concentration"
measurement = "0.947 (inactive)"

[[record]]
compound = "NC(=O)c1cccnc1 [Nicotinamide] (20 µM)"
quantitykind = "fold change of Tryptamine concentration"
measurement = "0.993 (inactive)"

[[record]]
compound = "C[C@]12CCC(=O)C=C1CC[C@@H]1[C@@H]2[C@@H](O)C[C@@]2(C)[C@H]1CC[C@]2(O)C(=O)CO [Hydrocortisone] (20 µM)"
quantitykind = "fold change of Tryptamine concentration"
measurement = "1.01 (inactive)"

[[record]]
compound = "CC=CC(=O)N(CC)c1ccccc1C [Crotamiton] (20 µM)"
quantitykind = "fold change of Tryptamine concentration"
measurement = "1.07 (inactive)"

[[record]]
compound = "CCc1c2c(nc3ccc(OC(=O)N4CCC(N5CCCCC5)CC4)cc13)-c1cc3c(c(=O)n1C2)COC(=O)[C@]3(O)CC [Irinotecan hydrochloride trihydrate] (20 µM)"
quantitykind = "fold change of Tryptamine concentration"
measurement = "0.937 (inactive)"

[[record]]
compound = "CC(C)Nc1ncccn1 [Isaxonine] (20 µM)"
quantitykind = "fold change of Tryptamine concentration"
measurement = "0.919 (inactive)"

[[record]]
compound = "O=C1Cc2cc(CCN3CCN(c4nsc5ccccc45)CC3)c(Cl)cc2N1 [Ziprasidone hydrochloride monohydrate] (20 µM)"
quantitykind = "fold change of Tryptamine concentration"
measurement = "0.712 (active)"

[[record]]
compound = "CN(C/C=C/C#CC(C)(C)C)Cc1cccc2ccccc12 [Terbinafine] (20 µM)"
quantitykind = "fold change of Tryptamine concentration"
measurement = "0.97 (inactive)"

[[record]]
compound = "CSc1ccc2c(c1)N(CCC1CCCCN1C)c1ccccc1S2 (stereo unspecified) [Thioridazine hydrochloride] (20 µM)"
quantitykind = "fold change of Tryptamine concentration"
measurement = "0.808 (inactive)"

[[record]]
compound = "CCCOc1cc(N)ccc1C(=O)OCCN(CC)CC [Propoxycaine hydrochloride] (20 µM)"
quantitykind = "fold change of Tryptamine concentration"
measurement = "1.05 (inactive)"

[[record]]
compound = "COc1c(N2C[C@@H]3CCCN[C@@H]3C2)c(F)cc2c(=O)c(C(=O)O)cn(C3CC3)c12 [Moxifloxacin] (20 µM)"
quantitykind = "fold change of Tryptamine concentration"
measurement = "0.205 (active)"

[[record]]
compound = "C=CC[N@@+]12CC[C@@]34c5ccccc5N5/C=C6/[C@H]7C[C@H]8[C@@]9(CC[N@@+]8(CC=C)C/C7=C/CO)c7ccccc7N(/C=C(/[C@@H](C[C@@H]31)/C(=C\\CO)C2)[C@H]54)[C@@H]69 [Alcuronium chloride] (20 µM)"
quantitykind = "fold change of Tryptamine concentration"
measurement = "1.05 (inactive)"

[[record]]
compound = "CC1COc2ccccc2N1C(=O)C(Cl)Cl (stereo unspecified) (20 µM)"
quantitykind = "fold change of Tryptamine concentration"
measurement = "1.06 (inactive)"

[[record]]
compound = "OCCN1CCN(CCCN2c3ccccc3Sc3ccc(Cl)cc32)CC1 [Perphenazine] (20 µM)"
quantitykind = "fold change of Tryptamine concentration"
measurement = "0.897 (inactive)"

[[record]]
compound = "COC(c1ccccc1)(c1ccccc1)[C@H](Oc1nc(C)cc(C)n1)C(=O)O [Ambrisentan] (20 µM)"
quantitykind = "fold change of Tryptamine concentration"
measurement = "1.02 (inactive)"

[[record]]
compound = "Cc1ccc(O)c([C@H](CCN(C(C)C)C(C)C)c2ccccc2)c1 [Tolterodine tartrate] (20 µM)"
quantitykind = "fold change of Tryptamine concentration"
measurement = "0.997 (inactive)"

[[record]]
compound = "COc1ccc(CN2CCN(C(c3ccc(F)cc3)c3ccc(F)cc3)CC2)c(OC)c1OC [Lomerizine dihydrochloride] (20 µM)"
quantitykind = "fold change of Tryptamine concentration"
measurement = "0.781 (inactive)"

[[record]]
compound = "CC(C)(C#N)c1cc(Cn2cncn2)cc(C(C)(C)C#N)c1 [Anastrozole] (20 µM)"
quantitykind = "fold change of Tryptamine concentration"
measurement = "1.09 (inactive)"

[[record]]
compound = "Nc1nc(Cl)nc2c1ncn2[C@H]1C[C@H](O)[C@@H](CO)O1 [Cladribine] (20 µM)"
quantitykind = "fold change of Tryptamine concentration"
measurement = "0.925 (inactive)"

[[record]]
compound = "CN1CCCC(CC2c3ccccc3Sc3ccccc32)C1 (stereo unspecified) [Metixene hydrochloride] (20 µM)"
quantitykind = "fold change of Tryptamine concentration"
measurement = "0.807 (inactive)"

[[record]]
compound = "CO/N=C(\\C(=O)N[C@@H]1C(=O)N2C(C(=O)OC(C)OC(C)=O)=C(COC(N)=O)CS[C@H]12)c1ccco1 (stereo partly specified) [Cefuroxime axetil] (20 µM)"
quantitykind = "fold change of Tryptamine concentration"
measurement = "0.936 (inactive)"

[[record]]
compound = "Nc1nc(N)nc(-c2cc(Cl)ccc2Cl)n1 [Irsogladine maleate] (20 µM)"
quantitykind = "fold change of Tryptamine concentration"
measurement = "0.959 (inactive)"

[[record]]
compound = "O=C(CCNNC(=O)c1ccncc1)NCc1ccccc1 [Nialamide] (20 µM)"
quantitykind = "fold change of Tryptamine concentration"
measurement = "1 (inactive)"

[[record]]
compound = "CNC1(C)C2CCC(C2)C1(C)C (stereo unspecified) [Mecamylamine hydrochloride] (20 µM)"
quantitykind = "fold change of Tryptamine concentration"
measurement = "1.03 (inactive)"

[[record]]
compound = "CC(CN1c2ccccc2Sc2ccccc21)N(C)C (stereo unspecified) [Promethazine hydrochloride] (20 µM)"
quantitykind = "fold change of Tryptamine concentration"
measurement = "1.01 (inactive)"

